# PROCEDURE_TEXT: amyloid nucleation score (Sup35N fusion, yeast selection) (log enrichment); library NNK2; higher = more nucleation; inactive = no reads after selection;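 also: zero at mode of non-aggregating sequences after 7 days selection at 30°C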
Classify by measured amyloid nucleation score: Met if it is equal to or exceeds -0.1, Not met if it is smaller.

Observe how each entry below is paired with its result.
INSERT INTO measurements (substance, label_class) VALUES
  ('LVILAGTVRIVRHGLVALQL', 'Met'),
  ('RSHMYSGYIYLIQKTFLREV', 'Not met'),
  ('TSSTSRVDRACPGDSWPDID', 'Met');

query: Determine whether this substance has amyloid nucleation score no lower than -0.1: ALATFVTPVAESA
result: Met

query: Determine whether this substance has amyloid nucleation score no lower than -0.1: LFKMCTSVFRVCSAGMMELG
result: Met

Value source: the supplement of paper PMC12042874
